Origin of the recorded values: PubChem BioAssay (NCI)

Can you tell me TGI for the items I'm about to list?
Tested on: A498 renal
Test: NCI tumour cell line growth inhibition, 48 h
The reply should contain only the number, in µM.

What value of TGI has been recorded for this entry: CCOC(=O)CC[C@H](N)C(=O)N[C@H](Cc1ccc(N(CCCl)CCCl)cc1)C(=O)OCC
74.5

What value of TGI has been recorded for this entry: O=C(CCl)Nc1cc(O)c2c(c1)C(=O)c1cccc(O)c1C2=O
36.6

What value of TGI has been recorded for this entry: Nc1c(-c2nc3ccccc3[nH]2)sc(=S)n1-c1ccc(Cl)cc1
88.2

What value of TGI has been recorded for this entry: Cc1cc(O)c(C(C)C)cc1N=Cc1ccccc1O
66.2

----------
Tested on: HOP-92 NSCLC
Assay: NCI tumour cell line growth inhibition, 48 h; in the data active = GI50 below about 0.43 µM; inactive = the rest
Bench note: report the call from 1 = active, -1 = inactive

Status in this test for O=C(Nc1ccc(I)cc1F)c1cc(I)ccc1O ?
1

Status in this test for N#Cc1cccc(OCc2ccccc2COc2cccc(C#N)c2)c1 ?
-1

Status in this test for O=C(CCl)Nc1cc(O)c2c(c1)C(=O)c1cccc(O)c1C2=O ?
-1

Status in this test for C1C[OH+]CC[OH+]CC[OH+]CC[OH+]CC[OH+]CC[OH+]1.[Cl-].[Nb+5] ?
-1

Status in this test for COc1cc(C2c3cc4c(cc3[C@@H](Nc3ccc(N)cc3)C3COC(=O)[C@H]23)OCO4)cc(OC)c1O (stereo partly drawn) ?
-1

Status in this test for CC1(C)[C@@H](OC(N)=O)C=C[C@]2(C=O)[C@H]3CC[C@]4(C)[C@@H](c5ccc(=O)oc5)[C@@H](Cl)C[C@]4(O)C3=CC[C@@H]12 ?
1

Status in this test for Cn1ncc(-c2ccc3c(=O)[nH]nc(CN)c3c2)c1-c1c(F)cc2ccccc2c1C#N ?
-1

Status in this test for CCc1nc(-n2c(-c3ccccc3)nc3ccccc3c2=O)nc(N)c1-c1ccc(Cl)cc1 ?
-1

Status in this test for C1CC[N-]CC1.CC(=N\O)/C(C)=N/O.CC(=N\O)/C(C)=N/O.[CH2-]CCN1CCOCC1.[Co+2] ?
-1

Status in this test for CN(C)CCNc1nc2ccccc2c2c(=O)c3ccccc3sc12 ?
-1

Status in this test for Oc1c(CN2CCOCC2)cc(COCc2ccccc2)c2cccnc12 ?
-1

Status in this test for O=C(NCCCCOCC#Cc1ccccc1C#CCS(=O)(=O)c1ccccc1)c1cc2ccccc2[nH]1 ?
-1

Status in this test for C#CCN(Cc1nc2cc(C(F)(F)F)ccc2nc1-c1ccccc1)c1ccc(F)c(F)c1 ?
-1

Status in this test for COc1cc([C@@H]2c3cc4c(cc3C(OC3O[C@@H]5COC(C)O[C@H]5[C@H](O)[C@H]3O)C3COC(=O)[C@@H]32)OCO4)cc(OC)c1O (stereo partly drawn) ?
1

Status in this test for O=[N+]([O-])c1cc(F)c2cccnc2c1O ?
-1

Status in this test for c1ccc2nc(OCCN3CC3)ccc2c1 ?
-1

Status in this test for C#Cc1cc2c(N)c(C(=O)c3cc(OC)c(OC)c(OC)c3)[nH]c2cc1OC ?
1

Status in this test for CCCCOc1ccc(/C=N/Nc2cc(C)nc3ccc(Cl)cc23)cc1 ?
-1

----------
Test system: RPMI-8226 leukemia
Assay: NCI tumour cell line growth inhibition, 48 h
quantity kind: TGI (µM)
The reply should contain only the number, in µM.

Entry COc1ccccc1N=C1SCCN1C(=S)Nc1ccc(S(=O)(=O)/N=C/N(C)C)cc1 , system RPMI-8226 leukemia: what TGI was measured?
68.4

Entry CC1(C)[C@@H](OC(N)=O)C=C[C@]2(C=O)[C@H]3CC[C@]4(C)[C@@H](c5ccc(=O)oc5)[C@@H](Cl)C[C@]4(O)C3=CC[C@@H]12 , system RPMI-8226 leukemia: what TGI was measured?
0.023

Entry N#Cc1cccc(OCc2ccccc2COc2cccc(C#N)c2)c1 , system RPMI-8226 leukemia: what TGI was measured?
59.1

Entry COCCNC1CCC2(SCCS2)c2[nH]c3ccccc3c21 (configuration not stated) , system RPMI-8226 leukemia: what TGI was measured?
41.4

Entry CCCCCCCCCCCCCCCCP(=O)([O-])OCC[N+](C)(C)C , system RPMI-8226 leukemia: what TGI was measured?
34.2

Entry CCOC(=O)c1ccccc1-c1c2ccc(=[N+](C)C)cc-2oc2cc(N(C)C)ccc12 , system RPMI-8226 leukemia: what TGI was measured?
4.96

Entry ClCC#CCSc1ncnc2c1ncn2CC#CCCl , system RPMI-8226 leukemia: what TGI was measured?
6.38

Entry CC(C)N(C(C)C)P(OCCC#N)OC1CC(n2cnc3c(=O)[nH]cnc32)OC1COC(=O)NCCCCCCNC(=O)OC(C)(C)c1ccc(-c2ccccc2)cc1 (configuration not stated) , system RPMI-8226 leukemia: what TGI was measured?
76.1

Entry C=C1c2nc3ccccc3n2C=C(c2ccc(OC)cc2)N1c1ccc(OCCN2CCOCC2)cc1 , system RPMI-8226 leukemia: what TGI was measured?
9.05

Entry O=[N+]([O-])c1cc(F)c2cccnc2c1O , system RPMI-8226 leukemia: what TGI was measured?
24.3

Entry O=C(Nc1cc(-c2cccnc2)nc(NCCCN2CCOCC2)n1)c1cc(Br)cc(C(F)(F)F)c1 , system RPMI-8226 leukemia: what TGI was measured?
9.69

Entry COc1cc(C=O)cc(C=Nc2ccc(S(N)(=O)=O)cc2)c1O , system RPMI-8226 leukemia: what TGI was measured?
33.3

Entry O=C(Nc1ccc(I)cc1F)c1cc(I)ccc1O , system RPMI-8226 leukemia: what TGI was measured?
1.64

Entry CN(C)c1ccc(/C=c2/c3cc([N+](=O)[O-])ccc3n3c2cc(-c2ccccc2)[n+]3C)cc1 , system RPMI-8226 leukemia: what TGI was measured?
1.72
